- TARGET DESC: CYP2C19 (Homo sapiens, UniProt P33261)
- Sequence (P33261 whole entry): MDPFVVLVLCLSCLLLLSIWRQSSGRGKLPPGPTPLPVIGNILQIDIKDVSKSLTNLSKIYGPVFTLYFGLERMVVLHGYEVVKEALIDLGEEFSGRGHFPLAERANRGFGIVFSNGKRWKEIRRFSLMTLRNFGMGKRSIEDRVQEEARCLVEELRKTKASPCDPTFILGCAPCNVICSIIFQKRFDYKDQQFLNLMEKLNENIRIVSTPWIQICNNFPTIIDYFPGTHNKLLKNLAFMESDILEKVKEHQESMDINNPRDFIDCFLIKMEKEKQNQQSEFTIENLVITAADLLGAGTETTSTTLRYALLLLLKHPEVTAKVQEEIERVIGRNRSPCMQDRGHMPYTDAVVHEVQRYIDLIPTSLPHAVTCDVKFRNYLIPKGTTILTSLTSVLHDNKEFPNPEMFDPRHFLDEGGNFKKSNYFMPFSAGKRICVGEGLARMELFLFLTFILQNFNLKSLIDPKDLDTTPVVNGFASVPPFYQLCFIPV
- ASSAY COMMENT: Inhibition of human CYP2C19 at 1 uM using luciferin-HEGE as substrate by enzyme bag based one point inhibition assay relative to control
- Assay type: ADME
- CONDITION LABEL: enzyme bags, probe luciferin-HEGE
ASSAY METRIC: inhibition at 1 µM (%)
Numbers only, in %.

# inhibition at 1 µM lookup, item `O=C(O)c1cccc(CNC(=O)c2ccc(-n3ccnc3)cc2)c1`
1.4

* * *

- TARGET DESC: CYP2C9 (Homo sapiens)
- Sequence (P11712 whole entry): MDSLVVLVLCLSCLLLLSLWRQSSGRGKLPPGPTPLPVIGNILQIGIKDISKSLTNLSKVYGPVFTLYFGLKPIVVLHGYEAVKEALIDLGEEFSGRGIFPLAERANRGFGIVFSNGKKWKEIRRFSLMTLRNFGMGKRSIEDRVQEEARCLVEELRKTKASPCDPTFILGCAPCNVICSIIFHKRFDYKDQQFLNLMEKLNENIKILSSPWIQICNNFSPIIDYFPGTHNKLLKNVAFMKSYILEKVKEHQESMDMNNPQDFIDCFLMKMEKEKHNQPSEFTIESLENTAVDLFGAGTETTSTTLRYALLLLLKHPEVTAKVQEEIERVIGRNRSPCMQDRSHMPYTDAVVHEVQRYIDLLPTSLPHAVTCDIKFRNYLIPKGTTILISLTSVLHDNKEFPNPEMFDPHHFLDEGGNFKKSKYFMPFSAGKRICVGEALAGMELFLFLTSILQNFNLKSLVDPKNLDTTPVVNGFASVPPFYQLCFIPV
- ASSAY COMMENT: Inhibition of human CYP2C9 at 1 uM using luciferin-H as substrate by enzyme bag based one point inhibition assay relative to control
- Format: ADME
- CONDITION LABEL: enzyme bags, probe luciferin-H
ASSAY METRIC: inhibition at 1 µM

Can you share its inhibition at 1 µM? I mean this compound: `O=C(O)c1cccc(CNC(=O)c2ccc(-n3ccnc3)cc2)c1`
-0.2%
